Cited source: PubChem BioAssay (NCI)

# Test system: SF-295 CNS
# assay_summary: NCI tumour cell line growth inhibition, 48 h
// bucketize TGI: low end (below 4 µM), middle (4 µM to below 20 µM), high end (20 µM or more)

1) CC1=Nc2c(ccc3c2C(=O)c2ccccc2C3=O)NC(c2ccncc2)C1 (stereo not given); high end
2) C=C1C(=O)O[C@H]2[C@H]1CC/C(COC(=O)c1cc3cc(OC)ccc3[nH]1)=C\CC[C@@]1(C)O[C@@H]21; middle
3) CC1(C)[C@@H]2C[C@H]1c1cnc(-c3ccccn3)cc1[C@H]2C(O)[C@@H]1c2cc(-c3ccccn3)ncc2[C@H]2C[C@@H]1C2(C)C (stereo not given in full); middle
4) NS(=O)(=O)c1nnc(NSc2ccc([N+](=O)[O-])cc2)s1; high end
5) C=C(COC(C)=O)CC(/C=C(\C)CCC=C(C)C)OC(C)=O (stereo not given); high end

Class? Entry: "CCCCCC(=O)Oc1ccc(/C(=C(\C)c2ccc(OC)cc2)c2ccc(OCCN3CCCCC3)cc2)cc1"
middle

Try this compound next: "c1ccc(-c2ccc(N=NN3CCCC3)cc2)cc1"
high end

Try this compound next: CCOC1NC(=O)c2ccccc21 (stereo not given)
high end

Try this compound next: "FC(F)=C(c1ccc(-c2ccc(Cl)cc2)cc1)C(F)(F)F"
high end

Try this compound next: "CC(=O)c1c(C)n([O-])c2cc(C)c(C)cc2[n+]1=O"
high end

Try this compound next: "CC(=O)[CH-]C(C)=O.CC(=O)[CH-]C(C)=O.N=CC=N.[Sn+2]"
high end

Try this compound next: COc1cc(CCCOC2OC(COC3OCC(O)C(O)C3O)C(O)C(O)C2O)cc2cc(-c3ccc4c(c3)OCO4)oc12 (stereo not given)
high end

Try this compound next: "COc1ccccc1C(=O)c1ccc2ccccc2c1"
high end

Try this compound next: "CCCS(=O)(=O)c1nc(NC2CC2)cc(-c2ccc3c(ccn3C3CC(C)(C)NC(C)(C)C3)c2)n1"
low end

Try this compound next: COC(=O)c1cc2c3c(cc(NCCN)c2[nH]1)N(C(=O)c1cc2cc(OC)c(OC)c(OC)c2[nH]1)CC3CCl (stereo not given)
low end

Try this compound next: "C/C(=N\Nc1nc2ccccc2s1)c1cccnn1"
middle

Try this compound next: "O=C1c2ccccc2-c2c1c1ccccc1c(=O)n2CCNCCCNCCn1c2c(c3ccccc3c1=O)C(=O)c1ccccc1-2"
low end

Try this compound next: COC(=O)c1sc2ncc3c(c2c1N)CC(C)CC3 (stereo not given)
high end

Try this compound next: "COc1ccc(NC2=C(Br)C(=O)C(C)=C(C)C2=O)cc1"
high end

###

# System: UO-31 renal
# assay_summary: NCI tumour cell line growth inhibition, 48 h
Readings of TGI for the listed molecules

1. Cc1ccc(-n2cc(-c3ccc(Cl)cc3)c3c2N=CN2NC(c4ccco4)=NC32)cc1 (centres undefined); 47.5 µM
2. CCOC(=O)c1[nH]c2nc(SC)nc(NC)c2c1N; > 100 µM
3. CC1OC(n2cc(F)c(=O)[nH]c2=O)C(O[Si](C)(C)C(C)(C)C)C1O[Si](C)(C)C(C)(C)C (centres undefined); 25.4 µM
4. COc1cc(/C=C/c2cc(=O)cc(/C=C/c3ccc(O)c(OC)c3)o2)ccc1O; > 100 µM
5. Cc1cn(C2CC(OC(c3ccccc3)(c3ccccc3)c3ccccc3)C(COC(c3ccccc3)(c3ccccc3)c3ccccc3)O2)c(=O)[nH]c1=O (centres undefined); > 100 µM

Let us examine a further case.
Fill in the recorded TGI for this molecule, with UO-31 renal as test system: "Cc1sc(C)c(-c2ccc(CO)o2)c1-c1ccc(CO)o1"
> 100 µM

###

# Tested on: K-562 leukemia
# assay_summary: NCI tumour cell line growth inhibition, 48 h
Readings of TGI for the listed compounds

Consider the following illustrative entries.
1) COCC(=O)OC1CCn2c1nc1c2C(=O)C(C)=C(NC(C)=O)C1=O (configuration not stated); 11.9 µM
2) COC(=O)c1c(O)ccc2[nH]c(C)c(C#N)c12; > 100 µM
3) COc1cc(CCCOC2OC(COC3OCC(O)C(O)C3O)C(O)C(O)C2O)cc2cc(-c3ccc4c(c3)OCO4)oc12 (configuration not stated); > 175 µM

What does the data say about its TGI? Entry: "NS(=O)(=O)c1nnc(NSc2ccc([N+](=O)[O-])cc2)s1"
> 100 µM

Try this compound next: "C=CCOc1c(Br)cc(Br)cc1Br"
> 100 µM

Try this compound next: "COc1ccc(CCCCl)c(C2=NCCc3ccccc32)c1"
> 100 µM

Try this compound next: "O=C(N/N=C/c1ccc(Cl)cc1Cl)c1ccccc1Nc1cccc(C(F)(F)F)c1"
> 100 µM

Try this compound next: "COc1cc(/C=C\c2ccc(O)cc2)cc(OC)c1OC"
> 100 µM

###

# Tested on: KM12 colon
# assay_summary: NCI tumour cell line growth inhibition, 48 h
value_type: TGI

1) O=CN(O)CC(=O)O; > 100 µM
2) C=C1CC2C(=O)N(c3ccccc3)C(=O)C2CC1n1[nH]c(=O)n(Cc2ccccc2)c1=O (centres undefined); > 100 µM

Let us examine a further case.
What does the data say about its TGI? Entry: "CN(C)c1nc(=NCc2ccccn2)ss1"
> 10 µM

###

Readings of GI50 for the listed molecules
# Tested on: CAKI-1 renal
# assay_summary: NCI tumour cell line growth inhibition, 48 h

1) COc1ccc2c(c1)C=CC(C#N)N2C(=O)c1ccccc1 (stereo unspecified); < 0.01 µM

Let us examine a further case.
What does the data say about its GI50? Entry: "CS(=O)(=O)Nc1ccc(-c2ccc3c(NC(=O)C4CC4)n[nH]c3c2)cc1"
> 25 µM

###

# Test system: SF-268 CNS
# assay_summary: NCI tumour cell line growth inhibition, 48 h
Readings of TGI for the listed compounds

What does the data say about its TGI? Entry: "CCOC(=O)[C@@H](C)C[C@H](Cc1ccccc1)NC(=O)c1csc([C@@H](C[C@H](C(C)C)N(C)C(=O)[C@@H](NC(=O)[C@H]2CCCCN2C)C(C)(C)C)OC(C)=O)n1"
> 16.7 µM

Try this compound next: "COC(=O)C1=C(C)N2[C@H](C(=O)O)CS[C@@]2(C)[C@H](C(=O)OC)[C@H]1c1cccc([N+](=O)[O-])c1"
> 100 µM

Try this compound next: "O=C1N[C@@H](O)[C@@H]2ON=C(c3ccccc3)[C@H]12"
> 100 µM

Try this compound next: COc1ccc(C2C(C#N)=C(N)OC3=C2CCCc2ccc(F)cc23)cc1OC (centres undefined)
48.5 µM

Try this compound next: "c1ccc([P+](Cc2csnn2)(c2ccccc2)c2ccccc2)cc1"
> 100 µM

Try this compound next: COC(=O)C1=C(C(=O)OC)C2(C)CCC(=O)C1O2 (centres undefined)
> 10 µM

Try this compound next: Cc1ccc(-n2cc(-c3ccc(Cl)cc3)c3c2N=CN2NC(c4ccco4)=NC32)cc1 (centres undefined)
83.6 µM

Try this compound next: "CCOP(=O)(OCC)c1cc(-c2ccccc2)ccc1N"
> 100 µM

Try this compound next: "COc1ccc(NC2=C(Br)C(=O)C(C)=C(C)C2=O)cc1"
28.2 µM

###

Readings of TGI for the listed compounds
# Tested on: COLO 205 colon
# assay_summary: NCI tumour cell line growth inhibition, 48 h
Number in µM, nothing else.

1) CCN(Cc1c(F)cccc1F)c1ccc(CO)c(Cl)c1; 1.61
2) Cc1ncc(NC(=O)c2ccc(CN3CCN(C)CC3)c(C(F)(F)F)c2)cc1Nc1nccc(-c2cccnc2)n1; 21.6
3) CC1=CCC[C@H]2[C@](C)(CC3=CC(=O)C4SCCSC4C3=O)[C@@H](C)CC[C@]12C (stereo not given in full); 35.9

What does the data say about its TGI? Entry: "COc1ccc(NC2=C(Br)C(=O)C(C)=C(C)C2=O)cc1"
51

###

Readings of TGI for the listed compounds
# Tested on: 786-0 renal
# assay_summary: NCI tumour cell line growth inhibition, 48 h

1) Cn1c(N)nc2c(nc(OCc3ccccc3)n2C2OC(CO)C(O)C2O)c1=O (stereo not given); > 100 µM
2) Clc1cccc(C2ON=C(c3ccccc3)N2C23CC4CC(CC(C4)C2)C3)c1Cl (stereo not given); > 10 µM
3) Cc1noc(C)c1-c1ccc2[nH]c(=O)n3c2c1OC[C@@H]3c1ccccn1; > 100 µM
4) COc1ccccc1C(=O)c1ccc2ccccc2c1; > 100 µM
5) Oc1c2c(c(O)c3ccccc13)=N[C@@H](c1ccccc1)[C@H](c1ccccc1)N=2; > 100 µM

Fill in the recorded TGI for this compound, with 786-0 renal as test system: "NC(N)=N/N=C/c1c(-c2ccccn2)nc2sc(Cl)cn12"
16.4 µM

Try this compound next: "CC(C)Cc1c(C#N)c(C#N)c(N)n1Cc1ccccc1"
> 100 µM

Try this compound next: "COC(=O)c1cc(C(=O)OC)cc(-c2ccc3c(c2)-c2nc4c(c(-c5ccc(OC)cc5)c2CC3)CCc2ccc(-c3cc(C(=O)OC)cc(C(=O)OC)c3)cc2-4)c1"
> 100 µM

Try this compound next: "Oc1c(Br)cc(CN(Cc2cc(Br)c(O)c(Br)c2)C2CCCCC2)cc1Br"
> 100 µM

Try this compound next: "CCN(C(=O)N[C@H](C(=O)N[C@@H](C)C(=O)OC)C(C)C)c1ccccc1"
92.4 µM
